Target: SOS1-KRAS (Homo sapiens, UniProt Q07889)
Sequence (Q07889 whole entry, looked up, stated change not applied, the tested form may be a part): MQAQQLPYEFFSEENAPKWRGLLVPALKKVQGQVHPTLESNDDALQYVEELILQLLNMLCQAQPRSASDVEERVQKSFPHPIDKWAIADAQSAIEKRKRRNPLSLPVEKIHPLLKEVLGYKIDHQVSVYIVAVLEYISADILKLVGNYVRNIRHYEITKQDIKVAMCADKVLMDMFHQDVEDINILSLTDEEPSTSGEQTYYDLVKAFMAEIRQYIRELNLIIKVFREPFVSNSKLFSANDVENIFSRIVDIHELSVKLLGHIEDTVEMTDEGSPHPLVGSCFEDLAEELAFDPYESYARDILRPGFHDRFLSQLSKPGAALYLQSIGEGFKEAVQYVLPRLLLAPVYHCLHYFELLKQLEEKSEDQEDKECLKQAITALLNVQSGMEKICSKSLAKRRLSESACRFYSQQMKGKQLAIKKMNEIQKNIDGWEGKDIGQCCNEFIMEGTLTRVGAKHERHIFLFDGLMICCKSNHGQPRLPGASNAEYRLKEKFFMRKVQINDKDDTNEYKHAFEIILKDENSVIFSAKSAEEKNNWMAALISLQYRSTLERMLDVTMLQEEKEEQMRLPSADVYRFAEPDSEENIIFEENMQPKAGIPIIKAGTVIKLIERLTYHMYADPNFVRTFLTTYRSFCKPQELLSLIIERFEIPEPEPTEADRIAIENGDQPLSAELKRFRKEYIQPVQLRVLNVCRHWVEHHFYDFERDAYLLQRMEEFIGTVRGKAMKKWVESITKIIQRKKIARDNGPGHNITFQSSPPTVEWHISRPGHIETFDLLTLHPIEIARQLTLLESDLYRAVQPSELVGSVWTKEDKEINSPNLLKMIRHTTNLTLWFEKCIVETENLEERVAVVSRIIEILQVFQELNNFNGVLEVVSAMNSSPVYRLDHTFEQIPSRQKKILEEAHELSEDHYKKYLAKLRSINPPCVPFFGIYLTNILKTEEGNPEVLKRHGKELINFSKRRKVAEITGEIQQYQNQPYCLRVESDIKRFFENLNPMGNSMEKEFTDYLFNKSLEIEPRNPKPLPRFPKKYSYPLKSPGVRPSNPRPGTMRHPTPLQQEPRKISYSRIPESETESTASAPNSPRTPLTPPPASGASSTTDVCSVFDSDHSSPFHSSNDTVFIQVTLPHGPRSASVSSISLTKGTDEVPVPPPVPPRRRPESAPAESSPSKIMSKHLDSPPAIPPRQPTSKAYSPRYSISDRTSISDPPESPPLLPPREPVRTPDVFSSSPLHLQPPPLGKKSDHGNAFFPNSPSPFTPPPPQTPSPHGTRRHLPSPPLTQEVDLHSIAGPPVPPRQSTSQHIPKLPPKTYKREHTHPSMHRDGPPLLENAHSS
Assay: Inhibition of N-terminal GST-tagged recombinant human KRAS G12C mutant (1 to 169 residues) expressed in Escherichia coli/N-terminal His10-tagged wild-type recombinant human SOS1 catalytic domain (564 to 1049 residues) expressed in Escherichia coli protein-protein interaction preincubated for 2 mins with KRAS followed by SOS1 addition measured after 60 mins in presence of anti-6His-XL665 by HTRF analysis
property_label: pIC50
Worth noting: pIC50 values are minus log10 of concentrations stated in mol/L.

Fill in the blank: the reported pIC50 of COc1cc2nc(C)nc(NC(C)c3ccc(-c4ccccc4CNCC(F)(F)F)s3)c2cc1OC (centres undefined) is ____.
5.50

Look at this compound and give its reported pIC50. COc1cc2nc(C)nc(NC(C)c3ccc(-c4ccccc4CNCc4ccccc4)s3)c2cc1OC (centres undefined)
6.33

For the compound shown here, COc1cc2nc(C)nc(NC(C)c3ccc(-c4ccccc4CN(C)CCO)s3)c2cc1OC (centres undefined) , give the reported pIC50.
7.33

Param item = COc1cc2nc(C)nc(NC(C)c3ccc(-c4ccccc4CN)s3)c2cc1OC (centres undefined) ; retrieve measured pIC50.
7.10

Any idea what its pIC50 is? The compound is COc1cc2nc(C)nc(NC(C)c3ccc(-c4ccccc4S(=O)(=O)N(C)C)s3)c2cc1OC (centres undefined)
5.67

Give its pIC50 value. Item: COc1cc2nc(C)nc(NC(C)c3ccc(-c4ccccc4CNCC(F)F)s3)c2cc1OC (centres undefined)
6.11

What measured pIC50 goes with COCCNCc1ccccc1-c1ccc(C(C)Nc2nc(C)nc3cc(OC)c(OC)cc23)s1 (centres undefined) ?
7.00

* * *

Catalogue of IC50 values
Biological target: SOS1-KRAS (Homo sapiens, UniProt Q07889)
Assay: Inhibition of N-terminal GST-tagged recombinant human KRAS G12C mutant (1 to 169 residues) expressed in Escherichia coli/N-terminal His10-tagged wild-type recombinant human SOS1 catalytic domain (564 to 1049 residues) expressed in Escherichia coli protein-protein interaction preincubated for 2 mins with KRAS followed by SOS1 addition measured after 60 mins in presence of anti-6His-XL665 by HTRF analysis
Write the value in µM as a bare number.

GET /values?readout=IC50&system=SOS1-KRAS (Homo sapiens, UniProt Q07889)&item= COc1cc2nc(C)nc(NC(C)c3ccc(-c4ccccc4CNCCO)s3)c2cc1OC (configuration not stated)
0.046

Could you share what IC50 was measured for COc1cc2nc(C)nc(NC(C)c3ccc(-c4ccccc4C(N)=O)s3)c2cc1OC (configuration not stated) , tested on SOS1-KRAS (Homo sapiens, UniProt Q07889)?
3.21

Form field - read-out: IC50; system: SOS1-KRAS (Homo sapiens, UniProt Q07889); submitted item: COc1cc2nc(C)nc(NC(C)c3ccc(-c4ccccc4CN4CCC4)s3)c2cc1OC (configuration not stated)
0.076

API: value(readout=IC50, system=SOS1-KRAS (Homo sapiens, UniProt Q07889)) for record CCNCc1ccccc1-c1ccc(C(C)Nc2nc(C)nc3cc(OC)c(OC)cc23)s1 (configuration not stated)
0.055

Test system SOS1-KRAS (Homo sapiens, UniProt Q07889); read-out IC50; what value for COc1cc2nccc(N[C@H](C)c3cccc4ccccc34)c2cc1OC ?
2.59

Record lookup: for SOS1-KRAS (Homo sapiens, UniProt Q07889), what IC50 belongs to COc1cc2nc(C)nc(NC(C)c3ccc(-c4ccccc4CN4CC(F)C4)s3)c2cc1OC (configuration not stated) ?
0.41

# get_value(readout= IC50, system= SOS1-KRAS (Homo sapiens, UniProt Q07889)) for CCCCNCc1ccccc1-c1ccc(C(C)Nc2nc(C)nc3cc(OC)c(OC)cc23)s1 (configuration not stated)
0.098
